Hello, the source for this data is patent EP2446893A1, in case you need it.

Target: UniProt:Q9QZX8
Sequence (Q9QZX8 1-687): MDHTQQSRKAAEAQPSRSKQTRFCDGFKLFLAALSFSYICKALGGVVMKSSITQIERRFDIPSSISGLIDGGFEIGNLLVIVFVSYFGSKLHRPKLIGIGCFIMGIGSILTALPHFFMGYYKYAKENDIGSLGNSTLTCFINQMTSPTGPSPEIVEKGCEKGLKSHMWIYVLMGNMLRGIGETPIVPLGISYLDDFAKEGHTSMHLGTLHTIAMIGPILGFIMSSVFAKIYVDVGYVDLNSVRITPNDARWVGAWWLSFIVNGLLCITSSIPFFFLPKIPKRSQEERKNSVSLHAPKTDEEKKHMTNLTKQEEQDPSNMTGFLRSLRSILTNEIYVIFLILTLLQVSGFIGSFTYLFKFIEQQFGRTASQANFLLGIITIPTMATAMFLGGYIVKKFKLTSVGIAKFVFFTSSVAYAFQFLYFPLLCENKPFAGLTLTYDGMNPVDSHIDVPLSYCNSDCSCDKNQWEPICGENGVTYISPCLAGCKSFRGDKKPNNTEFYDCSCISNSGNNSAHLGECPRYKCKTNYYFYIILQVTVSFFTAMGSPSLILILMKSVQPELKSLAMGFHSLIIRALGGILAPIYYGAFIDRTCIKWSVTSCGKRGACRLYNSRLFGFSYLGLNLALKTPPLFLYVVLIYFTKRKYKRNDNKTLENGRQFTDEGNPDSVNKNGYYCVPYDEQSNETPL
Starred links: 1 amine or outer side, 2 acyl side, 3 side chain; linkers in the order of their positions; H or OH if unused. Non-standard residues stand in square brackets, D forms with d. Residues, ends and D or L forms follow the SMILES beside them. ξ: configuration not given here. X1 = O=C(C(Cc1ccc(O)cc1)N=CC(Cc1ccc(O)cc1)N[*:1])[*:2]; Pro(4S-Me) = C[C@@H]1CN[C@H](C(=O)O)C1; d(hSer) = N[C@H](CCO)C(=O)O; ξY = NC(Cc1ccc(O)cc1)C(=O)O
property_label: pKi
Just so you know, pKi here is -log10 of the concentration in molar units; reply with that number alone.

Query :: What value of pKi has been recorded for this entry: CC(C)[C@@H]1NC(=O)[C@@H]2CCCN2C(=O)[C@@H](CCO)NC(=O)C(Cc2ccc(O)cc2)NC(=O)C(Cc2ccc(O)cc2)N=CC(Cc2ccc(O)cc2)NC(=O)[C@@H]2C[C@H](C)CN2C1=O (stereo partly drawn) [Ncp-M1] (cyclo([X1][ξY][d(hSer)]PV[Pro(4S-Me)]))
Result :: 6.46
